- Measurement Target: mTOR/GbL/Raptor (mTORC1) (Homo sapiens, UniProt P42345)
- Assay Info: mTOR/GbL/Raptor (mTORC1) ELISA assay
- Applied Conditions: phosphorylation of 4E-BP1; 0.2 nM mTORC1, 10 μM ATP; read-out: IC50 in this assay (mTORC1 ELISA)
Recorded IC50 for the following compounds
Recorded Endpoint: IC50

CC1(C)CCc2ncnc(N3CCOc4ccc(-c5cnc(N)c(S(C)(=O)=O)c5)cc4C3)c2C1 : 10 to 50 nM
Cc1ncnc(N2CCOc3ccc(-c4cc5[nH]c(N)nc5cn4)cc3C2)c1Cc1ccc(F)cc1 : 10 to 50 nM
CC1(C)CCc2ncnc(N3CCOc4ccc(-c5cnc(Nc6ccccc6)c(NS(C)(=O)=O)c5)cc4C3)c2C1 : 250 to 1000 nM
COCc1nc2ccc(-c3ccc4c(c3)CN(c3ccnc5ccccc35)CCO4)cc2[nH]1 : ≥ 2000 nM

* * *

- Measurement Target: mTOR/GbL/Raptor (mTORC1) (Homo sapiens, UniProt P42345)
- Assay Info: mTOR/GbL/Raptor (mTORC1) ELISA assay
- Assay type: biochemical
- Applied Conditions: phosphorylation of 4E-BP1; 0.2 nM mTORC1, 10 μM ATP; read-out: IC50 in this assay (mTORC1 ELISA)
Recorded IC50 for the following molecules
Recorded Endpoint: IC50

CC1(C)CCc2ncnc(N3CCOc4ccc(-c5cnc(N)c(S(=O)(=O)NCC6CCCCN6)c5)cc4C3)c2C1 (centres unmarked) [Example 376] : 10 to 50 nM
c1ccc2c(N3CCOc4ccc(-c5ccc6[nH]ncc6c5)cc4C3)ccnc2c1 [Example 138] : ≥ 2000 nM
CN1CC[C@H](CNS(=O)(=O)c2cc(-c3ccc4c(c3)CN(c3ncnc5c3CC(C)(C)CC5)CCO4)cnc2N)C1 [Example 394] : 50 to 250 nM
CC1(C)CCc2ncnc(N3CCOc4ccc(-c5cnc(N)c(S(=O)(=O)NC6CNC6)c5)cc4C3)c2C1 [Example 426] : 10 to 50 nM
Cc1ncc(S(=O)(=O)N2CCOCC2)c(N2CCOc3ccc(-c4cnc5nc(C)[nH]c5c4)cc3C2)n1 [Example 561] : 250 to 1000 nM
Cc1nc2ncc(-c3ccc4c(c3)CN(c3ncnc(NC(C)C)c3C)CCO4)cc2[nH]1 [Example 525] : 250 to 1000 nM
CCNc1nc2ccc(-c3ccc4c(c3)CN(c3ncnc(Nc5ccccc5)c3C)CCO4)cc2[nH]1 [Example 287] : 50 to 250 nM
CNC(=O)c1ccc(-c2ccc3c(c2)CN(c2ccnc4ccccc24)CCO3)cc1 [Example 239] : 50 to 250 nM
c1ccc2ncc(-c3ccc4c(c3)CN(c3ccnc5ccccc35)CCO4)cc2c1 [Example 205] : 1000 to 2000 nM
CCn1cnc2cc(-c3ccc4c(c3)CN(c3ccnc5ccccc35)CCO4)ccc21 [Example 127] : 250 to 1000 nM
COC(=O)Nc1nc2ncc(-c3ccc4c(c3)CN(c3ncnc(C)c3Cc3ccc(F)cc3)CCO4)cc2[nH]1 [Example 175] : ≤ 10 nM
CC1(C)CCc2ncnc(N3CCOc4ccc(-c5cnc(N)c(S(=O)(=O)NCC(O)CN)c5)cc4C3)c2C1 (centres unmarked) [Example 412] : 10 to 50 nM
CC1(C)CCc2ncnc(N3CCOc4ccc(-c5cnc(N)c(S(=O)(=O)NC(C)(C)CN)c5)cc4C3)c2C1 [Example 403] : 10 to 50 nM
Cc1nc2ccc(-c3ccc4c(c3)CN(c3ncnc5scc(C)c35)CCO4)cc2[nH]1 [Example 47] : ≥ 2000 nM
Cc1ncnc(N2CCOc3ccc(-c4cnc5sc(N)nc5c4)cc3C2)c1Cc1ccc(F)cc1 [Example 217] : ≤ 10 nM
Cc1nc2ncc(-c3ccc4c(c3)CN(c3nc(CN(C)C(C)C)nc5c3CC(C)(C)CC5)CCO4)cc2[nH]1 [Example 606] : 10 to 50 nM
COc1ccc2c(N3CCOc4ccc(-c5cnc6nc(C)[nH]c6c5)cc4C3)nc(CN(C)C)nc2c1 [Example 613] : 250 to 1000 nM
